These entries and their values trace back to the supplement of paper PMC6757056.

B1: library; a variant is named by its letters at N, in order (parent)
chain: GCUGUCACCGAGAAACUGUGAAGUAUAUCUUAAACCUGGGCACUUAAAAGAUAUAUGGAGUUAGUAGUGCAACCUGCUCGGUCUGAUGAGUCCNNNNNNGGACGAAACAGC

variants of: B1; assay: FACS-Seq fitted mean relative fluorescence mCherry/BFP with ligand (log10 relative fluorescence); HEK293T; ligand: cyclic di-GMP (c-di-GMP-II aptamer); ligand concentration (+) FACS-Seq: 1 mM; higher = higher reporter protein expression; conditions: ligand present: yes
Could you label it class 1 if measured FACS-Seq fitted mean (log10) is -0.2 or higher, and class 0 otherwise?

CAUAGU    class 0

Prompt line: Given the entry "CCUUUA" , answer whether its FACS-Seq fitted mean (log10) meets or surpasses -0.2.
Response line: class 1
